Quick reference for melting point among some compounds
Assay endpoint: melting point

compound="CN1CCN(c2ccc(Nc3cc(NC(=O)Nc4cc(Cl)c(Cl)cc4Cl)ncn3)cc2)CC1 [Example 74]" assay_endpoint="melting point" reported_measurement="252 to 254 °C"
compound="CC(C)Nc1cc(NC(=O)Nc2c(Cl)cc(Cl)cc2Cl)ncn1 [Example 67]" assay_endpoint="melting point" reported_measurement="218 to 220 °C"
compound="CN1CCN(c2cccc(Nc3cc(NC(=O)Nc4c(Cl)cc(Cl)cc4Cl)ncn3)c2)CC1 [Example 86]" assay_endpoint="melting point" reported_measurement="138 to 142 °C"
compound="CN1CCC(COc2ccc(Nc3cc(NC(=O)Nc4c(Cl)cccc4Cl)ncn3)cc2)CC1 [Example 71]" assay_endpoint="melting point" reported_measurement="183 to 185 °C"
compound="COc1ccc(Cl)c(NC(=O)N(C)c2cc(Nc3ccc(N4CCN(C)CC4)cc3)ncn2)c1Cl [Example 1]" assay_endpoint="melting point" reported_measurement="161.5 to 163 °C"
compound="Cc1cccc(Cl)c1NC(=O)Nc1cc(Nc2cccc(OCC3CCN(C)CC3)c2)ncn1 [Example 79]" assay_endpoint="melting point" reported_measurement="200 to 204 °C"
compound="CN1CCN(Cc2ccc(Nc3cc(NC(=O)Nc4c(Cl)cc(Cl)cc4Cl)ncn3)cc2)CC1 [Example 84]" assay_endpoint="melting point" reported_measurement="194 to 196 °C"
compound="CC(C)(C)[Si](C)(C)O[C@H]1CC[C@H](Nc2cc(NC(=O)Nc3c(Cl)cccc3Cl)ncn2)CC1 [Example 91]" assay_endpoint="melting point" reported_measurement="211 to 212 °C"
compound="CN1CCN(Cc2ccc(Nc3cc(NC(=O)Nc4c(Cl)cccc4Cl)ncn3)cc2)CC1 [Example 83]" assay_endpoint="melting point" reported_measurement="199 to 201 °C"
compound="CN1CCN(c2ccc(Nc3cc(NC(=O)Nc4c(Cl)cc(Cl)cc4Cl)ncn3)cc2)CC1 [Example 73]" assay_endpoint="melting point" reported_measurement="209 to 211 °C"
compound="CN1CCN(c2ccc(Nc3cc(NC(=O)Nc4cc(Cl)ccc4Cl)ncn3)cc2)CC1 [Example 72]" assay_endpoint="melting point" reported_measurement="223 to 225 °C"
compound="CC(C)(C)[Si](C)(C)O[C@H]1CC[C@H](Nc2cc(NC(=O)Nc3c(Cl)cc(Cl)cc3Cl)ncn2)CC1 [Example 87]" assay_endpoint="melting point" reported_measurement="198 to 199 °C"
compound="Cc1cccc(Cl)c1NC(=O)Nc1cc(N[C@H]2CC[C@H](O)CC2)ncn1 [Example 90]" assay_endpoint="melting point" reported_measurement="149 to 152 °C"
compound="CN1CCC(COc2ccc(Nc3cc(NC(=O)Nc4c(Cl)cc(Cl)cc4Cl)ncn3)cc2)CC1 [Example 69]" assay_endpoint="melting point" reported_measurement="189 to 191 °C"
compound="COc1cc(OC)c(Cl)c(NC(=O)N(C)c2cc(Nc3ccc(N4CCN(C)CC4)cc3)ncn2)c1Cl [Example 2]" assay_endpoint="melting point" reported_measurement="221 °C (dec.)"
compound="Cc1cccc(Cl)c1NC(=O)Nc1cc(NC(C)C)ncn1 [Example 65]" assay_endpoint="melting point" reported_measurement="233 °C"
compound="CN1CCN(C(=O)c2ccc(Nc3cc(NC(=O)Nc4c(Cl)cc(Cl)cc4Cl)ncn3)cc2)CC1 [Example 85]" assay_endpoint="melting point" reported_measurement="165 to 175 °C"
compound="O=C(Nc1cc(N[C@H]2CC[C@H](O)CC2)ncn1)Nc1c(Cl)cc(Cl)cc1Cl [Example 88]" assay_endpoint="melting point" reported_measurement="171 to 173 °C"
compound="Cc1cccc(Cl)c1NC(=O)Nc1cc(Nc2ccc(CN3CCN(C)CC3)cc2)ncn1 [Example 82]" assay_endpoint="melting point" reported_measurement="199 to 201 °C"
compound="Cc1cccc(Cl)c1NC(=O)Nc1cc(N[C@H]2CC[C@H](O[Si](C)(C)C(C)(C)C)CC2)ncn1 [Example 89]" assay_endpoint="melting point" reported_measurement="218 to 220 °C"
compound="CN1CCC(COc2cccc(Nc3cc(NC(=O)Nc4c(Cl)cccc4Cl)ncn3)c2)CC1 [Example 80]" assay_endpoint="melting point" reported_measurement="198 to 200 °C"
compound="CN1CCN(c2cccc(Nc3cc(NC(=O)Nc4c(Cl)cccc4Cl)ncn3)c2)CC1 [Example 5]" assay_endpoint="melting point" reported_measurement="209 to 212 °C"
compound="CN1CCN(c2ccc(N(C(=O)Nc3cccc(Cl)c3Cl)c3cc(N)ncn3)cc2)CC1 [Example 76]" assay_endpoint="melting point" reported_measurement="280 to 282 °C"
